assayTarget: GRK6, recombinant full-length GST-tagged human protein (Homo sapiens)
Construct: GRK6, recombinant full-length GST-tagged human protein; GST
methodDescription: GRK6 IC50 determination (8-point concentration-response)
Assay type: biochemical
experimentalReadout: IC50 (nM)

Please review the entries below; each comes with its answer.
> print(dat)
                          chemicalstructure                               assaytarget  experimentalreadout  resultvalue
1  N#CCc1cc(-c2ccc3ccccc3c2)cc(-c2nnc(SCC(=O)O)[nH]2)c1  GRK6, recombinant full-length GST-tagged human protein (Homo sapiens)                 IC50          178
2  O=C(O)CSc1nnc(-c2cc(-c3cccc4c3oc3ccccc34)cc([N+](=O)[O-])c2)[nH]1  GRK6, recombinant full-length GST-tagged human protein (Homo sapiens)                 IC50          438

a. Cc1ccc2cc(-c3cc(-c4nnc(SCC(=O)O)[nH]4)cc([N+](=O)[O-])c3)ccc2c1
b. O=C(O)CSc1nnc(-c2cccc(Oc3ccccc3)c2)[nH]1
c. Cn1ccc2cc(-c3cc(-c4nnc(SCC(=O)O)[nH]4)cc([N+](=O)[O-])c3)ccc21
d. O=C(O)CSc1nnc(-c2cc(Br)cc([N+](=O)[O-])c2)n1CC(=O)O
Hey, quick one: sort these by IC50, largest value first please. Lab note: record answer as labels in requested order. b, d, a, c
(b: 12400 nM, d: 5060 nM, a: 442 nM, c: 60 nM)

###

assayTarget: GRK6, recombinant full-length GST-tagged human protein (Homo sapiens)
Construct: GRK6, recombinant full-length GST-tagged human protein; GST
methodDescription: GRK6 IC50 determination (8-point concentration-response)
Assay type: biochemical
conditionSet: 20 nM GRK6, 12 μM ATP (Km), 1 μM Peptide 216, 7 h incubation
From the text: Two hundred forty compounds were further characterized by determining IC50 values in a GRK6 assay. This screen has been previously described in WO 2013/063458, which is incorporated by reference in its entirety herein.
pIC50: −log10 of the molar value.
experimentalReadout: pIC50

> print(dat)
                       chemicalstructure  resultvalue
1      O=C(O)CSc1nnc(-c2cccc(F)c2O)[nH]1         5.06
2  CN(C)Cc1ccc(-c2nnc(SCC(=O)O)[nH]2)cc1         4.40

1. O=C(O)CSc1nnc(-c2ccc(OC3CCNCC3)cc2)[nH]1
2. O=C(O)CSc1nnc(-c2cccc(-n3cncn3)c2)[nH]1
3. CCSc1ccc(-c2nnc(SCC(=O)O)[nH]2)cc1
Hey, quick one: sort these by pIC50, largest value first please. Lab note: record answer as labels in requested order. 2, 3, 1
(2: 5.35, 3: 5.05, 1: 4.40)

###

assayTarget: GRK6, recombinant full-length GST-tagged human protein (Homo sapiens, UniProt P43250)
Construct: GRK6, recombinant full-length GST-tagged human protein; GST
Sequence (P43250 whole entry): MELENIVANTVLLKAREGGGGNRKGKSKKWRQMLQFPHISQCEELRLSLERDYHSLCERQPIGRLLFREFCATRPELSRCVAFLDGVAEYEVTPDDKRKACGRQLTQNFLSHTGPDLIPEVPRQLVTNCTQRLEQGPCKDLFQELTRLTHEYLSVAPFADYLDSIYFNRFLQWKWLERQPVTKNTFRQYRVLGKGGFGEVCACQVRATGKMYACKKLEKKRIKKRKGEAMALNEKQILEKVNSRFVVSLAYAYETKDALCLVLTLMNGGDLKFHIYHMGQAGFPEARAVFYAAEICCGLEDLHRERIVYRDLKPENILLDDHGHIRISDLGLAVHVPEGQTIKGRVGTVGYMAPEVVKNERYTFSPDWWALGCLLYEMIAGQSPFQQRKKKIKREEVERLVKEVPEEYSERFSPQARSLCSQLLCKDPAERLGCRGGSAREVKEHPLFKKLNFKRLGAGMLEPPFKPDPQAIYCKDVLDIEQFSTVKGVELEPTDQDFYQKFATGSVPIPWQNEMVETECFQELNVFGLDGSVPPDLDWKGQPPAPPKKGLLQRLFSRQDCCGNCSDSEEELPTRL
methodDescription: GRK6 IC50 determination (8-point concentration-response)
Assay type: biochemical
pIC50: −log10 of the molar value.
experimentalReadout: pIC50

Please review the entries below; each comes with its answer.
> print(dat)
                          chemicalstructure                               assaytarget  experimentalreadout  resultvalue
1  O=C(O)CSc1nnc(-c2cc(-c3cccc4[nH]ncc34)cc([N+](=O)[O-])c2)[nH]1  GRK6, recombinant full-length GST-tagged human protein (Homo sapiens, UniProt P43250)                pIC50         6.94
2        O=C(O)CSc1nnc(-c2ccc3nsnc3c2)[nH]1  GRK6, recombinant full-length GST-tagged human protein (Homo sapiens, UniProt P43250)                pIC50         5.31

a. O=C(O)CSc1nnc(-c2cc(NC(=O)c3ccco3)cc(-c3ccc4ccccc4c3)c2)[nH]1
b. CS(=O)(=O)Nc1cccc(-c2cc(-c3nnc(SCC(=O)O)[nH]3)cc([N+](=O)[O-])c2)c1
For a and b , which recorded pIC50 is lower? Please indicate the selected item by its label. a
(a: 6.11, b: 6.52)

###

assayTarget: GRK6, recombinant full-length GST-tagged human protein (Homo sapiens, UniProt P43250)
Construct: GRK6, recombinant full-length GST-tagged human protein; GST
methodDescription: GRK6 IC50 determination (8-point concentration-response)
Assay type: biochemical
experimentalReadout: IC50 (µM)

> print(dat)
                                   compound  experimentalreadout  resultvalue
1  COc1ccc(NC(=O)c2cccc(-c3nnc(SCC(=O)O)[nH]3)c2)cc1 [Compound 170]                 IC50         21.3

P. COc1cccc(NC(=O)c2cccc(-c3nnc(SCC(=O)O)[nH]3)c2)c1 [Compound 151]
Q. O=C(O)CSc1nnc(-c2cc(-c3ccc4c(c3)[nH]c3ccccc34)cc([N+](=O)[O-])c2)[nH]1 [Compound 240]
R. CN1CCOc2cc(-c3nnc(SCC(=O)O)[nH]3)ccc21 [Compound 166]
Number of compounds to sort: 3. Sort criterion: IC50, ascending. Lab note: record answer as labels in requested order. Q, P, R

P. CC(=O)Nc1cccc(-c2cc(-c3nnc(SCC(=O)O)[nH]3)cc([N+](=O)[O-])c2)c1 [Compound 42]
Q. Cn1nc(C(F)(F)F)cc1-c1cc(-c2nnc(SCC(=O)O)[nH]2)cc([N+](=O)[O-])c1 [Compound 97]
Returns: the argument ( P or Q ) having the larger IC50. Please indicate the selected item by its label. Q

###

assayTarget: GRK6, recombinant full-length GST-tagged human protein (Homo sapiens, UniProt P43250)
Construct: GRK6, recombinant full-length GST-tagged human protein; GST
methodDescription: GRK6 IC50 determination (8-point concentration-response)
Assay type: biochemical
experimentalReadout: IC50 (nM)

1. O=C(O)CSc1nnc(-c2cc(-c3cccnc3)cc(-c3ccc4ccccc4c3)c2)[nH]1
2. O=C(O)CSc1nnc(-c2cccc3ccccc23)[nH]1
3. O=C(O)CSc1nnc(-c2cc(C(=O)NCc3ccccc3)cc([N+](=O)[O-])c2)[nH]1
Ascending by IC50, please: list the molecules accordingly. Lab note: record answer as labels in requested order. 1, 3, 2

I. COc1cc(-c2nnc(SCC(=O)O)[nH]2)ccc1F
II. O=C(O)CSc1nnc(-c2ccc3c(c2)OCCO3)[nH]1
Returns: the argument ( I or II ) having the larger IC50. Please indicate the selected item by its label. II
(II: 13400 nM, I: 4620 nM)

1. CC(C)(O)c1ccc(-c2cc(-c3nnc(SCC(=O)O)[nH]3)cc([N+](=O)[O-])c2)cc1
2. CN1CCOc2cc(-c3cc(-c4nnc(SCC(=O)O)[nH]4)cc([N+](=O)[O-])c3)ccc21
For 1 and 2 , which recorded IC50 is lower? Please indicate the selected item by its label. 2

###

assayTarget: GRK6, recombinant full-length GST-tagged human protein (Homo sapiens)
Construct: GRK6, recombinant full-length GST-tagged human protein; GST
methodDescription: GRK6 IC50 determination (8-point concentration-response)
Assay type: biochemical
experimentalReadout: IC50 (nM)

Please review the entries below; each comes with its answer.
> print(dat)
                          chemicalstructure  experimentalreadout  unitstring  resultvalue
1  CN(C)c1cccc(-c2cc(-c3nnc(SCC(=O)O)[nH]3)cc([N+](=O)[O-])c2)c1                 IC50          nM          538
2  CNC(=O)c1cccc(NC(=O)c2cccc(-c3nnc(SCC(=O)O)[nH]3)c2)c1                 IC50          nM        20400

P. O=C(O)CSc1nnc(-c2cc(-c3cnn(Cc4ccccc4)c3)cc([N+](=O)[O-])c2)[nH]1
Q. O=C(O)CSc1nnc(-c2cccc(C(=O)Nc3ccccc3Cl)c2)[nH]1
R. O=C(O)CSc1nnc(-c2cccc(C(=O)Nc3ccc4cn[nH]c4c3)c2)[nH]1
Number of compounds to sort: 3. Sort criterion: IC50, ascending. Lab note: record answer as labels in requested order. P, R, Q

a. Cc1c(-c2ccc3c(ccn3C)c2)cc(-c2nnc(SCC(=O)O)[nH]2)cc1[N+](=O)[O-]
b. O=C(O)CSc1nnc(-c2cc(-c3ccc4[nH]c(-c5ccccc5)cc4c3)cc([N+](=O)[O-])c2)[nH]1
c. O=C(O)CSc1nnc(-c2cc(-c3ccc4ccccc4c3)cc(-c3cnccc3F)c2)[nH]1
Hey, quick one: sort these by IC50, largest value first please. Lab note: record answer as labels in requested order. c, b, a
(c: 751 nM, b: 302 nM, a: 103 nM)

A. NC(=O)c1cc2cc(-c3cc(-c4n[nH]c(SCC(=O)O)n4)cc([N+](=O)[O-])c3)ccc2[nH]1
B. CC(=O)Nc1cc(-c2ccc3ccccc3c2)cc(-c2nnc(SCC(=O)O)[nH]2)c1
Returns: the argument ( A or B ) having the larger IC50. Please indicate the selected item by its label. B

a. O=C(O)CSc1nnc(-c2cc(-c3ccc4ccccc4c3)cc(-c3cnco3)c2)[nH]1
b. O=C(O)CSc1nnc(-c2cc(-c3cccc4cnccc34)cc([N+](=O)[O-])c2)[nH]1
c. O=C(O)CSc1nnc(-c2cc(C(=O)NCc3ccccn3)cc([N+](=O)[O-])c2)[nH]1
d. O=C(O)CSc1nnc(-c2cc(-c3ccc(-c4ccn[nH]4)cc3)cc([N+](=O)[O-])c2)[nH]1
e. CN(C)c1ccc(-c2cc(-c3nnc(SCC(=O)O)[nH]3)cc([N+](=O)[O-])c2)cc1
Hey, quick one: sort these by IC50, top value first please. Lab note: record answer as labels in requested order. c, e, b, a, d

This collection of values is drawn from patent US20170050939A1.
